meta.source: patent EP4635969A1

# Intraocular pressure of guinea pigs (mmHg) D14 listing for each entry below
System: intraocular pressure of guinea pigs
TEST NAME: Adverse reactions of continuous ocular administration: intraocular pressure
Assay type: in vivo
RECORDED CONDITIONS: D14; 50 µL/eye (compounds and fluorometholone 1 mg/mL, loteprednol 5 mg/mL)
Kindly answer with a numeric value in mmHg, unit omitted.

Previously resolved entries follow.
{"COMPOUND": "CC(=O)[C@@]1(O)CC[C@H]2[C@@H]3C[C@H](C)C4=CC(=O)C=C[C@]4(C)[C@@]3(F)[C@@H](O)C[C@@]21C [Fluorometholone, reference compound]", "RESULT NUMBER": 21.2}
{"COMPOUND": "C[C@]12C=CC(=O)C=C1CC[C@H]1[C@@H]3C[C@H]4OC(c5ccc(CSC6CCOC6=O)cc5)O[C@@]4(C(=O)CO)[C@@]3(C)C[C@H](O)[C@@]12Cl (stereo partly shown) [Compound 23]", "RESULT NUMBER": 15.3}
{"COMPOUND": "C[C@]12C=CC(=O)C=C1CC[C@H]1[C@@H]3C[C@H]4OC(c5ccc(CSC6CCOC6=O)cc5)O[C@@]4(C(=O)CO)[C@@]3(C)C[C@H](O)[C@@]12F (stereo partly shown) [Compound 17]", "RESULT NUMBER": 14.5}

--- query ---
Ask: Tell me measured Intraocular pressure of guinea pigs (mmHg) D14 for CCOC(=O)O[C@]1(C(=O)OCCl)CC[C@H]2[C@@H]3CCC4=CC(=O)C=C[C@]4(C)[C@H]3[C@@H](O)C[C@@]21C [Loteprednol, Loteprednol Etabonate, reference compound] please.
Reply: 18.5

* * *

TESTED ON: UniProtKB P04150
Sequence (P04150 521-777): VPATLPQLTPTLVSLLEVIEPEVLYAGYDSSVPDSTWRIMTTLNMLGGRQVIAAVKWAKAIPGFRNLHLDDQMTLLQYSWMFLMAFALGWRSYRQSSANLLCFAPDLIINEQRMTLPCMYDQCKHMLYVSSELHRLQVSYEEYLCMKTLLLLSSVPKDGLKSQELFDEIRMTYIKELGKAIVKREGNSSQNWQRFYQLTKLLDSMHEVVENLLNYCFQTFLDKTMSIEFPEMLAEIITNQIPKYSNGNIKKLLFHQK
TEST NAME: Assay for agonist activity on glucocorticoid receptor (luciferase reporter, HEK293 cells transfected with pBIND-GR plasmid)
Type: cell-based
RECORDED CONDITIONS: Nuclear receptor enzyme activity (nM) GR, EC50 of agonist activity, HEK293 reporter cells
// returns Not satisfied unless EC50 is strictly below 0.2 nM, in which case Satisfied

Study these solved cases before continuing.
{"COMPOUND": "C[C@]12C=CC(=O)C=C1[C@@H](F)C[C@H]1[C@@H]3C[C@H]4OC(c5ccc(CSC6CCOC6=O)cc5)O[C@@]4(C(=O)SCF)[C@@]3(C)C[C@H](O)[C@@]12F (stereo partly drawn)", "TESTED ON": "UniProtKB P04150", "ANSWER LABEL": "Satisfied"}
{"COMPOUND": "C[C@]12C=CC(=O)C=C1[C@@H](F)C[C@H]1[C@@H]3C[C@H]4OC(c5ccc(CSC6CCOC6=O)cc5)O[C@@]4(C(=O)OCF)[C@@]3(C)C[C@H](O)[C@@]12F (stereo partly drawn)", "TESTED ON": "UniProtKB P04150", "ANSWER LABEL": "Satisfied"}
{"COMPOUND": "C[C@]12C=CC(=O)C=C1[C@@H](F)C[C@H]1[C@@H]3C[C@H]4OC(c5ccc(CSC6CCOC6=O)cc5)O[C@@]4(C(=O)SCC#N)[C@@]3(C)C[C@H](O)[C@@]12F (stereo partly drawn)", "TESTED ON": "UniProtKB P04150", "ANSWER LABEL": "Not satisfied"}

Ask: Take the compound C[C@]12C=CC(=O)C=C1CC[C@H]1[C@@H]3C[C@H]4OC(c5ccc(COC6CCOC6=O)cc5)O[C@@]4(C(=O)CO)[C@@]3(C)C[C@H](O)[C@@]12Cl (stereo partly drawn) and say whether its EC50 is less than 0.2 nM.
Reply: Not satisfied

Ask: Consider C[C@]12C=CC(=O)C=C1CC[C@H]1[C@@H]3C[C@H]4OC(c5ccc(COC6CCOC6=O)cc5)O[C@@]4(C(=O)CO)[C@@]3(C)C[C@H](O)[C@@]12F (stereo partly drawn) . Does its EC50 lie strictly below 0.2 nM?
Reply: Not satisfied

Ask: Check if EC50 falls below 0.2 nM for C[C@]12C=CC(=O)C=C1CC[C@H]1[C@@H]3C[C@H]4OC(c5ccc(CSC6CCOC6=O)nc5)O[C@@]4(C(=O)CO)[C@@]3(C)C[C@H](O)[C@@]12F (stereo partly drawn) .
Reply: Not satisfied
